FYI, the data here is from paper PMC12491715.

A collection of molecules and their measured half-life
# experimentDescription: Aqueous stability (UPLC)
# Type: physicochemical
# assaySetup: buffer; PBS:EtOH = 80:20; calculated half-lives only approximates; read-out: t1/2 in aqueous solution (converted)

structure	half-life
CCC1(c2cnn(C(=O)N(C)C)n2)Cc2ccccc2C1	~29 days
CCC1(c2ncn(C(=O)N(C)C)n2)Cc2ccccc2C1	~46 days

----------
# experimentDescription: Shake-flask partition coefficient / logD
# Type: physicochemical
# assaySetup: n-octanol/PBS buffer, pH 6.02
propertyMeasured: logD

molecule	resultValue
CCN(CC)C(=O)n1cnc(C2(CC)Cc3ccccc3C2)c1 [Compound 8]	3.15

----------
# experimentDescription: Thermodynamic solubility
# Type: physicochemical
# assaySetup: pH 10 solution, pH 10, aqueous buffer, thermodynamic from solid
propertyMeasured: solubility at 24 h (µg/mL)

structure	propertyMeasured	resultValue
CCN(CC)C(=O)n1cnc(C2(CC)Cc3ccccc3C2)c1	solubility at 24 h	103
